Every entry's value here was drawn from patent US20200164069A1.

target: recombinant cynomolgus monkey IL-21 (cynomolgus monkey (Macaca fascicularis), UniProt Q9HBE4 30-162 (human entry), limits assumed); assay: cell-based or functional assay
Sequence (Q9HBE4 other isoform, or with tags, fused parts or gaps limits assumed): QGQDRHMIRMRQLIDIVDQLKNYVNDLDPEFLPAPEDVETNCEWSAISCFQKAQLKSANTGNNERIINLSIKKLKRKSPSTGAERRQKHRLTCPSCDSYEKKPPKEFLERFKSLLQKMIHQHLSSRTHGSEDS
observedProperty: IC50 in pSTAT3 assay (human PBMCs, 20 pM IL-21) (pM)
Value expressed in pM; do not type the unit.

Data request: Given 9F11-6 (antibody, IgG1, V domains shown) VH: EVQLVESGGGLVQPGGSLRLSCAASGFTFSDAWMDWVRQAPGKGLEWVAEIRSEADNHPTYYAESVKGRFTISRDDSKNSVYLQMNSLKTEDTAVYYCTEYDYEGFVHWGQGTLVTVSS VL: DIVMTQTPLSLSVTPGQPASISCRASKSVSTYGYSYMHWYLQKPGQPPQLLIYLASNLESGVPDRFSGSGSGTDFTLKISRVEAEDVGVYYCQHSRELPLTFGQGTKLEIK , respond with its IC50 in pSTAT3 assay (human PBMCs, 20 pM IL-21).
Data returned: 50.8
